Test system: spring wheat
Assay: Growth height of spring wheat, leaf treatment, Example 10
Assay type: in vivo, spring wheat ("Opal" variety)
Details: 1.5 kg/ha
Answer each item with its documented Plant height, % of untreated control.
Give bare numbers, in %.

Solved entries (count: 3):
{"columns": ["compound", "measured_property", "recorded_number"],
 "data": [
  ["FC(F)(F)c1cccc(NC2C(I)C3CC2C2N=NC32)c1 (stereo not shown) [drawing 403]", "Plant height, % of untreated control", 83.3],
  ["O=P(O)(O)CCCl [Ethephon, β-chloroethylphosphonic acid, reference compound]", "Plant height, % of untreated control", 91.5],
  ["Cc1ccc(C2=NOC3C4CC(C5N=NC45)C23)cc1 (stereo not shown) [drawing 401]", "Plant height, % of untreated control", 89.9]
]}

Hi there! I need Plant height, % of untreated control for each item below, if you can.
1. Brc1ccc(C2=NOC3C4CC(C5N=NC45)C23)cc1 (stereo not shown) [drawing 399]
2. Clc1ccc(C2N=NC3C4CC(C5N=NC45)C23)cc1 (stereo not shown) [drawing 398]
3. O=[N+]([O-])c1ccc(C2=NOC3C4CC(C5N=NC45)C23)cc1 (stereo not shown) [drawing 400]
4. Clc1ccc(C2=NOC3C4CC(C5N=NC45)C23)cc1 (stereo not shown) [drawing 402]

Response line:
[88.4, 71.6, 88.4, 88.4]
